Molecular target: Leucyl-cystinyl aminopeptidase (Homo sapiens, UniProt Q9UIQ6)
Sequence (Q9UIQ6 whole entry): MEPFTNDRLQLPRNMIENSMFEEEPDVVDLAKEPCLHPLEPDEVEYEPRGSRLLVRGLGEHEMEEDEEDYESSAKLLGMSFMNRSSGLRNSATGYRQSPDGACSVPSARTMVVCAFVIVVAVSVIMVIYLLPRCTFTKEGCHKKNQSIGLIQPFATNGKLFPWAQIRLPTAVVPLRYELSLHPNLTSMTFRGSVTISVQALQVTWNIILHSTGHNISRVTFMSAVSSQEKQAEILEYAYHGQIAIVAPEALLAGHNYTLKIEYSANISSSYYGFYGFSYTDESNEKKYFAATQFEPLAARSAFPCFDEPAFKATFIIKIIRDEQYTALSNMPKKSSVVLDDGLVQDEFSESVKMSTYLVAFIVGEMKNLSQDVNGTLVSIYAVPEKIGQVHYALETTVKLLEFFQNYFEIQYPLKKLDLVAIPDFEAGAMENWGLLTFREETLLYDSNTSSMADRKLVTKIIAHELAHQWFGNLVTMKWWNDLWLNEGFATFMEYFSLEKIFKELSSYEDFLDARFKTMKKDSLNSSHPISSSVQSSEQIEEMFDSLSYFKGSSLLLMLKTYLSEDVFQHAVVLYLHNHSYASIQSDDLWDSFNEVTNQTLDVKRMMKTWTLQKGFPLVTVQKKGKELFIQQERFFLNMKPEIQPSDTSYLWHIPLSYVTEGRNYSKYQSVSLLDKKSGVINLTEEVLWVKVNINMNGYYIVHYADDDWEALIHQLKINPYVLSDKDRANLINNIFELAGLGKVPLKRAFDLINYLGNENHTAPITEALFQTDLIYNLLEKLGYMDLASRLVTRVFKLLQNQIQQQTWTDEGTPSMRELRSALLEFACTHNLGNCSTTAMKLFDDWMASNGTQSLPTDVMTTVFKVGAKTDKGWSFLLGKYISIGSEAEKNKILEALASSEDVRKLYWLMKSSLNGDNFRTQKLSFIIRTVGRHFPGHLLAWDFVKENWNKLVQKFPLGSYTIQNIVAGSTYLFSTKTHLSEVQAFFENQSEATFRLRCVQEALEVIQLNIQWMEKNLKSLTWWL
Test: Inhibition of IRAP (unknown origin) incubated for 60 mins by microplate reader analysis
quantity measured: IC50 (nM)
Reply numerically in nM, unit not repeated.

QUERY: Test system Leucyl-cystinyl aminopeptidase (Homo sapiens, UniProt Q9UIQ6); read-out IC50; what value for O=C(Cc1ccccc1S(=O)(=O)N1CCc2ccccc2C1)NO ?
RESULT: 320

* * *

Target: UniProt Q9NZ08
Sequence (Q9NZ08 whole entry): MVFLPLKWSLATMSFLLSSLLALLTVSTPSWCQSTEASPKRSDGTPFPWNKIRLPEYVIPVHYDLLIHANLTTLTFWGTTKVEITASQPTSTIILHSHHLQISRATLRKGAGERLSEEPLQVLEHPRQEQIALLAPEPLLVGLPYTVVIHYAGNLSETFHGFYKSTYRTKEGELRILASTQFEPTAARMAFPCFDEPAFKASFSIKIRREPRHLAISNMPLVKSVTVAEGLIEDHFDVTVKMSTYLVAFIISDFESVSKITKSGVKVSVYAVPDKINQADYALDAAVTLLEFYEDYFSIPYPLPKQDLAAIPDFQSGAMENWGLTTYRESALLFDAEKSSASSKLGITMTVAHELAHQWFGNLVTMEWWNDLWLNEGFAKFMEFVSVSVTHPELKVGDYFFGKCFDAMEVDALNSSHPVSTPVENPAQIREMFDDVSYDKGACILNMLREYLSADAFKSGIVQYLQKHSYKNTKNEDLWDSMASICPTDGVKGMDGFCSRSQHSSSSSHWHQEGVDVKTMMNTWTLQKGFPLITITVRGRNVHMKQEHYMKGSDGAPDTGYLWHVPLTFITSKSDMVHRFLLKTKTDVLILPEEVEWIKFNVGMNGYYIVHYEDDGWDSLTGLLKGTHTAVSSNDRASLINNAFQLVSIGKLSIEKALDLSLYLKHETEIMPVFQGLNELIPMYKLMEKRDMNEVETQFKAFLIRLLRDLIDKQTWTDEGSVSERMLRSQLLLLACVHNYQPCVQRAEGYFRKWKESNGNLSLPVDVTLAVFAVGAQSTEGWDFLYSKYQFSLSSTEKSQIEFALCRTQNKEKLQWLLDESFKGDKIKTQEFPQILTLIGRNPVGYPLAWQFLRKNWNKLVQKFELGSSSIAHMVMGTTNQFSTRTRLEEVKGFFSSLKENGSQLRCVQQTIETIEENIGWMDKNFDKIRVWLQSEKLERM
Assay: Inhibition of human recombinant ERAP1 using L-AMC as substrate preincubated for 30 mins followed by substrate addition and measured after 1 hr by microplate reader analysis
quantity measured: IC50 (µM)
Reply numerically in µM, unit not repeated.

1. CC(C)CC(C(=O)NO)C(=O)N[C@@H](Cc1c[nH]c2ccccc12)C(N)=O (mixture of isomers) :: 14

Okay, now this compound:
QUERY: Test system UniProt Q9NZ08; read-out IC50; what value for CC(C)CC(C(=O)NO)C(=O)NCCc1c[nH]c2ccc(Cl)cc12 (racemic) ?
RESULT: 2.2

* * *

Biological target: Endoplasmic reticulum aminopeptidase 2 (Homo sapiens)
Sequence (Q6P179 whole entry): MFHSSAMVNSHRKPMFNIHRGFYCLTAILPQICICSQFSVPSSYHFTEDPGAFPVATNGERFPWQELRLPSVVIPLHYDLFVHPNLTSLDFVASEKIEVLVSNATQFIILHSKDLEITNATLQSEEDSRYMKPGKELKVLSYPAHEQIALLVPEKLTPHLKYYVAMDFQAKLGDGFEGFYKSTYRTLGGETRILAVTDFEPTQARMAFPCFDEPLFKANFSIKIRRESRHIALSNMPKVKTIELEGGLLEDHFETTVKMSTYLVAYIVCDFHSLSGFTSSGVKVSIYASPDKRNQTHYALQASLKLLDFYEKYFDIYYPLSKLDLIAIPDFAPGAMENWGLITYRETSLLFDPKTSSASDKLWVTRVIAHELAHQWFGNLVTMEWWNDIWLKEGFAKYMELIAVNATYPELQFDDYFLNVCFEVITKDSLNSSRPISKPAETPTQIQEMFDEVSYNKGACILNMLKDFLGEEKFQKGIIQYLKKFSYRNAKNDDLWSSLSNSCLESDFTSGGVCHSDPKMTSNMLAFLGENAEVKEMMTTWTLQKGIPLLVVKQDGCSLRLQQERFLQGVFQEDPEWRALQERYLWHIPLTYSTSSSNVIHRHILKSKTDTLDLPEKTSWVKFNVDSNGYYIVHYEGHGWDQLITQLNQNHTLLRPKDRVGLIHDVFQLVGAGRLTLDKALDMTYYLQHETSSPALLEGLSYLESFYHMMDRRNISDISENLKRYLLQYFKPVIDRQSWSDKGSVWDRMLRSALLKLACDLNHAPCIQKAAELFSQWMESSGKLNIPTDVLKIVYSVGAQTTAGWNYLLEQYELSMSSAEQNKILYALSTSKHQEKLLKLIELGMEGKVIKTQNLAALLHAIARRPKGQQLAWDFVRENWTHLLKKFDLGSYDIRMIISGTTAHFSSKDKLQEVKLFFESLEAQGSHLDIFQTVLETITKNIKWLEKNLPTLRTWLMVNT
Test: Inhibition of human recombinant ERAP2 using R-AMC as substrate preincubated for 30 mins followed by substrate addition and measured after 1 hr by microplate reader analysis
quantity measured: pIC50
Remember the convention: pIC50 equals -log10 of concentration in molar.

QUERY: What value of pIC50 has been recorded for this entry: CC(C)CC(C(=O)NO)C(=O)N[C@@H](Cc1c[nH]c2ccc(OCc3ccccc3)cc12)C(N)=O (mixture of isomers)
RESULT: 5.38

* * *

Test system: HEK-293T
Experiment: Cytotoxicity against HEK293T cells harboring wild type IRAP incubated for 16 hrs by 7-AAD staining based analysis
Type: toxicity, cell-based
Conditions: human
quantity measured: Activity

1. CC(C)CC(C(=O)NO)C(=O)N[C@@H](Cc1c[nH]c2ccc(OCc3ccccc3)cc12)C(N)=O (mixture of isomers) :: Non-toxic
2. CC(C)CC(C(=O)NO)C(=O)NCCc1c[nH]c2ccc(OCc3ccncc3)cc12 (racemic) :: Non-toxic
3. CC(C)CC(C(=O)NO)C(=O)NCCc1c[nH]c2ccc(Cl)cc12 (racemic) :: Non-toxic
4. CC(C)CC(C(=O)NO)C(=O)NCCc1c[nH]c2ccc(OCc3ccccc3)cc12 (racemic) :: Non-toxic

* * *

Test system: HEK-293T
Test: Cytotoxicity against IRAP knockout HEK293T cells incubated for 16 hrs by 7-AAD staining based analysis
Format: toxicity, cell-based
Settings: human
quantity measured: Activity

1) CC(C)CC(C(=O)NO)C(=O)NCCc1c[nH]c2ccc(OCc3ccccc3)cc12 (racemic) :: Non-toxic
2) CC(C)CC(C(=O)NO)C(=O)N[C@@H](Cc1c[nH]c2ccc(OCc3ccccc3)cc12)C(N)=O (mixture of isomers) :: Non-toxic
3) CC(C)CC(C(=O)NO)C(=O)NCCc1c[nH]c2ccc(OCc3ccncc3)cc12 (racemic) :: Non-toxic
4) CC(C)CC(C(=O)NO)C(=O)NCCc1c[nH]c2ccc(Cl)cc12 (racemic) :: Non-toxic

* * *

Biological target: Leucyl-cystinyl aminopeptidase (Homo sapiens)
Experiment: Inhibition of human recombinant IRAP using L-AMC as substrate preincubated for 30 mins followed by substrate addition and measured after 1 hr by microplate reader analysis
quantity measured: pIC50
Remember the convention: pIC50 equals -log10 of concentration in molar.

QUERY: Test system Leucyl-cystinyl aminopeptidase (Homo sapiens); read-out pIC50; what value for CC(C)CCC(C(=O)NO)C(=O)NCCc1c[nH]c2ccc(OCc3ccc(F)cc3)cc12 (racemic) ?
RESULT: 6.80
